Molecular target: BRD4(1) (Homo sapiens, UniProt O60885)
Construct: made in house
Experiment: Protein stability (thermal) shift assay, BRD4(1)
Format: binding
Details: compound 10 μM, protein 2 μM; average of triplicate; read-out: ΔTm Shift, BRD4(1)
In this section we review reported ΔTm at 10 µM values for a set of compounds.
Numbers only here, please. The scale is °C.

Below, 3 compounds whose answers are already recorded.
Quote ΔTm at 10 µM with test system BRD4(1) (Homo sapiens, UniProt O60885) for COc1ccc(F)cc1-c1nc(N)nc2[nH]cnc12 [Compound 7b]
0.369

Provide ΔTm at 10 µM, tested on BRD4(1) (Homo sapiens, UniProt O60885), for COc1cccc(OC(C)C)c1-c1nc(N)nc2[nH]cnc12 [Compound 6b] .
0.6

Give ΔTm at 10 µM only, for COc1cccc(OCC(C)C)c1-c1nc(N)nc2[nH]cnc12 [Compound 6c] , using BRD4(1) (Homo sapiens, UniProt O60885) data.
1

New cases:
Look up and report measured ΔTm at 10 µM (BRD4(1) (Homo sapiens, UniProt O60885)) for the following compound: COc1cccc(OC)c1-c1nc(N)nc2[nH]cnc12 [Compound 6a]
0.7

###

The entries below come with measured LE (ligand efficiency) values attached.
Target: BRD9 (Homo sapiens)
Construct: made in house
Sequence (Q9H8M2 136-240 limits assumed): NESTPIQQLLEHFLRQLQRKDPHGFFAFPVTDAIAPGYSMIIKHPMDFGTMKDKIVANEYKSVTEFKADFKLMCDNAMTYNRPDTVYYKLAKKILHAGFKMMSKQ
Assay: Isothermal titration calorimetry, BRD9
Assay type: binding
Details: LE = ΔG/N, N number of non-hydrogen atoms
Lab note: jot down the number only; don't add units.

Example entries begin here.
Look up and report measured LE (ligand efficiency) (BRD9 (Homo sapiens)) for the following compound: COc1ccc(Br)cc1-c1nc(Cl)nc2[nH]cnc12
0.35

Fill in: LE (ligand efficiency) on BRD9 (Homo sapiens), entry COc1ccc(Cl)cc1-c1nc(O)nc2[nH]cnc12
0.36

Check BRD9 (Homo sapiens) data and give LE (ligand efficiency) for Nc1nc(-c2ccccc2)c2nc[nH]c2n1 .
0.42

Okay, next one:
Tell me LE (ligand efficiency) of COc1ccccc1-c1nc(N)nc2[nH]cnc12 when tested on BRD9 (Homo sapiens).
0.45

###

Target: BRDT(1) (Homo sapiens)
Construct: made in house
Assay: Protein stability (thermal) shift assay, BRDT(1)
Type: binding
Conditions: compound 10 μM, protein 2 μM; average of triplicate
Protocol: Thermal melting experiments were carried out using an Mx3005p real time PCR machine (Stratagene). Proteins were buffered in 10 mM HEPES, pH 7.5, 500 mM NaCl and assayed in a 96-well plate at a final concentration of 2 μM in 20 μL volume. […] SYPRO Orange (Molecular Probes) was added as a fluorescence probe at a dilution of 1 in 1000. […] The temperature was raised with a step of 3 °C per minute from 25 to 96 °C, and fluorescence readings were taken at each interval. […]
Class (required): determined from ΔTm at 10 µM; valid ranges are category 1 (below 0.03 °C), category 2 (0.03 °C to below 0.7 °C), category 3 (0.7 °C or more)

Reference set, count: 4
For the record COc1cc(COc2ccc(-c3nc(N)nc4[nH]cnc34)cc2Cl)cc(OC)c1 , report the class its ΔTm at 10 µM corresponds to.
category 2

For COc1ccccc1-c1nc(N)nc2[nH]cnc12 , which ΔTm at 10 µM bin applies?
category 2

Class for Nc1nc(-c2ccccc2)c2nc[nH]c2n1 ?
category 3

Hello team, could you let me know which band the following molecule falls into: COc1ccc(-c2nc(N)nc3c2ncn3C)cc1
category 1

Others:
Exercise: read the entry COc1cccc(OC(C)C)c1-c1nc(N)nc2[nH]cnc12 and state which class it falls under.
category 2

Could you place COc1ccc(-c2nc(N)nc3[nH]cnc23)cc1 in its proper category? Many thanks.
category 1

Looking at Nc1nc(-c2ccc(OCc3ccccc3)cc2)c2nc[nH]c2n1 , which class would you pick?
category 3

Tag the class for COc1ccc(Br)cc1-c1nc(N)nc2[nH]cnc12
category 1

Looking at COc1ccc(Cl)cc1-c1nc(O)nc2[nH]cnc12 , which class would you pick?
category 3
